test system: Sweetpotato Whitefly-Crawler (Bemisia tabaci) (WF) (BEMITA); assay: Insecticidal test for Sweetpotato Whitefly-Crawler in foliar spray assay on cotton plants; assay type: in vivo; conditions: 216 h, 200 ppm foliar spray on cotton, graded after 9 days, Abbott-corrected % control, read-out: % Control (or Mortality) rating, WF
outcome.measure: mortality at 200 ppm

> print(dat)
                                   molecule                               system.name  test.result
1  C#CCN(C(=O)C(CSC(c1ccccc1)(c1ccccc1)c1ccccc1)=NOCC)c1cn(-c2cccnc2)nc1Cl [Compound F1]  Sweetpotato Whitefly-Crawler (Bemisia tabaci) (WF) (BEMITA)     0 to 80%
2  CCN(C(=O)C(CS(=O)(=O)CCC(F)(F)F)=NOC)c1cn(-c2cccnc2)nc1Cl [Compound F8]  Sweetpotato Whitefly-Crawler (Bemisia tabaci) (WF) (BEMITA)   80 to 100%
3  CON=C(CS(=O)(=O)CCC(F)(F)F)C(=O)N(C)c1cn(-c2cccnc2)nc1Cl [Compound P47]  Sweetpotato Whitefly-Crawler (Bemisia tabaci) (WF) (BEMITA)   80 to 100%
4  C#CCN(C(=O)C(CSCC(F)(F)F)=NOC)c1cn(-c2cccnc2)nc1Cl [Compound F6]  Sweetpotato Whitefly-Crawler (Bemisia tabaci) (WF) (BEMITA)   80 to 100%
5  CCON=C(CSCC1CC1(F)F)C(=O)N(CC)c1cn(-c2cccnc2)nc1Cl (centres unmarked) [Compound F11]  Sweetpotato Whitefly-Crawler (Bemisia tabaci) (WF) (BEMITA)   80 to 100%

All figures here come from patent US9497966B2.
